- Tested on: Candida albicans
- assay.text: Antimicrobial activity against Candida albicans ATCC 10231 after 48 hr by two-fold dilution method
- Type: functional
- experimental.context: ATCC 10231, 48 h
observable: MIC

[[record]]
substance_smiles = "CSc1nnc(-c2cc(C)nc3ccccc23)o1"
observable = "MIC"
assay_result = "125 µg/mL"

[[record]]
substance_smiles = "Cc1cc(C(=O)Nc2nnc(SCc3ccccc3)s2)c2ccccc2n1"
observable = "MIC"
assay_result = "250 µg/mL"

[[record]]
substance_smiles = "Cc1cc(-c2nnc(S(C)(=O)=O)o2)c2ccccc2n1"
observable = "MIC"
assay_result = "31.2 µg/mL"

[[record]]
substance_smiles = "CCS(=O)(=O)c1nnc(-c2cc(C)nc3ccccc23)o1"
observable = "MIC"
assay_result = "125 µg/mL"


====

- Tested on: Candida albicans
- assay.text: Antimicrobial activity against Candida albicans ATCC 10231 at 1 mg/ml after 24 hr by cup diffusion technique
- Format: functional
- experimental.context: ATCC 10231, 24 h, read-out: DIZ
observable: zone of inhibition at 1000 µg/mL (mm)

[[record]]
substance_smiles = "CCSc1nnc(NC(=O)c2ccnc3ccccc23)s1"
unit = "mm"
assay_result = 17

[[record]]
substance_smiles = "CCSc1nnc(NC(=O)c2cc(C)nc3ccccc23)s1"
unit = "mm"
assay_result = 18

[[record]]
substance_smiles = "CCS(=O)(=O)c1nnc(NC(=O)c2cc(-c3ccccc3)nc3ccccc23)s1"
unit = "mm"
assay_result = 19

[[record]]
substance_smiles = "CCS(=O)(=O)c1nnc(NC(=O)c2ccnc3ccccc23)s1"
unit = "mm"
assay_result = 19

[[record]]
substance_smiles = "CSc1nnc(-c2cc(C)nc3ccccc23)o1"
unit = "mm"
assay_result = 26

[[record]]
substance_smiles = "CCSc1nnc(-c2cc(-c3ccccc3)nc3ccccc23)o1"
unit = "mm"
assay_result = 19

[[record]]
substance_smiles = "CCSc1nnc(-c2cc(C)nc3ccccc23)o1"
unit = "mm"
assay_result = 19


====

- Test system: Candida albicans
- assay.text: Antimicrobial activity against Candida albicans ATCC 10231 at 1 mg/ml after 24 hr by cup diffusion technique
- Type: functional
- experimental.context: ATCC 10231, 24 h, read-out: DIZ
observable: zone of inhibition at 1000 µg/mL (mm)

[[record]]
substance_smiles = "Cc1cc(-c2nnc(S(C)(=O)=O)o2)c2ccccc2n1"
assay_result = 27

[[record]]
substance_smiles = "CSc1nnc(NC(=O)c2cc(-c3ccccc3)nc3ccccc23)s1"
assay_result = 18

[[record]]
substance_smiles = "CSc1nnc(-c2cc(-c3ccccc3)nc3ccccc23)o1"
assay_result = 18

[[record]]
substance_smiles = "O=C(Nc1nnc(SCc2ccccc2)s1)c1ccnc2ccccc12"
assay_result = 19

[[record]]
substance_smiles = "CSc1nnc(NC(=O)c2ccnc3ccccc23)s1"
assay_result = 19

[[record]]
substance_smiles = "CCS(=O)(=O)c1nnc(NC(=O)c2cc(C)nc3ccccc23)s1"
assay_result = 18

[[record]]
substance_smiles = "CCSc1nnc(NC(=O)c2cc(-c3ccccc3)nc3ccccc23)s1"
assay_result = 18

[[record]]
substance_smiles = "CCS(=O)(=O)c1nnc(-c2cc(-c3ccccc3)nc3ccccc23)o1"
assay_result = 18

[[record]]
substance_smiles = "CS(=O)(=O)c1nnc(NC(=O)c2ccnc3ccccc23)s1"
assay_result = 19

[[record]]
substance_smiles = "Cc1cc(-c2n[nH]c(=S)o2)c2ccccc2n1"
assay_result = 18

[[record]]
substance_smiles = "Cc1cc(-c2nnc(SCc3ccccc3)o2)c2ccccc2n1"
assay_result = 19

[[record]]
substance_smiles = "O=C(Nc1nnc(SCc2ccccc2)s1)c1cc(-c2ccccc2)nc2ccccc12"
assay_result = 18

[[record]]
substance_smiles = "Cc1cc(C(=O)Nc2nnc(SCc3ccccc3)s2)c2ccccc2n1"
assay_result = 24

[[record]]
substance_smiles = "Cc1cc(C(=O)Nc2nnc(S(=O)(=O)Cc3ccccc3)s2)c2ccccc2n1"
assay_result = 19

[[record]]
substance_smiles = "Cc1cc(-c2nnc(S(=O)(=O)Cc3ccccc3)o2)c2ccccc2n1"
assay_result = 19

[[record]]
substance_smiles = "CCS(=O)(=O)c1nnc(-c2cc(C)nc3ccccc23)o1"
assay_result = 24

[[record]]
substance_smiles = "O=C(Nc1nnc(S(=O)(=O)Cc2ccccc2)s1)c1ccnc2ccccc12"
assay_result = 19

[[record]]
substance_smiles = "CS(=O)(=O)c1nnc(NC(=O)c2cc(-c3ccccc3)nc3ccccc23)s1"
assay_result = 19

[[record]]
substance_smiles = "CS(=O)(=O)c1nnc(-c2cc(-c3ccccc3)nc3ccccc23)o1"
assay_result = 18

[[record]]
substance_smiles = "c1ccc(CSc2nnc(-c3cc(-c4ccccc4)nc4ccccc34)o2)cc1"
assay_result = 18

[[record]]
substance_smiles = "O=S(=O)(Cc1ccccc1)c1nnc(-c2cc(-c3ccccc3)nc3ccccc23)o1"
assay_result = 19

[[record]]
substance_smiles = "O=C(Nc1nnc(S(=O)(=O)Cc2ccccc2)s1)c1cc(-c2ccccc2)nc2ccccc12"
assay_result = 18


Reference source for all entries: ChEMBL document CHEMBL3045678
